Entries and their measured viability at 28.5 h, 10 µM follow.
assay_info: in vitro
reported_conditions: human, hela cells, % viability
Expressed in %, but write only the number.

A selection of reference data follows.
O=C(CN1C(=O)COc2ccc(Cl)cc21)Nc1ccc2[nH]c(=O)[nH]c2c1 [CBK268295] ... 111
COc1cncc(C(NC(=O)c2ccn3nnnc3c2)[C@H]2C[C@@H](O)C2)c1 (some centres unmarked) [CBK306686] ... 96.2
Nc1cccc(-c2nccnc2NCc2cccnc2)c1 [CBK089310] ... 105
N=c1n(CCN2CCOCC2)c2ccccc2n1CC(O)c1cccs1 (centres unmarked) [CBK262895C] ... 99.1

Input: Assign viability at 28.5 h, 10 µM to the following record: CC(C)(C)OC(=O)N1CCC[C@@H](C(=O)c2cccnc2)C1 [CBK284284]
Output: 98.2

###

Entries and their measured viability at 28.5 h, 10 µM follow.
assay_info: in vitro
reported_conditions: human, hela cells, % viability
Expressed in %, but write only the number.

C1CCc2nnc(C34CC5CC(CC(C5)C3)C4)n2CC1 ... 83.5
COc1cccc(NC(=O)NC(=O)C2CCN(C(C)C)CC2)c1 ... 89.6
Cc1ccc(N(Cc2cc3ccccc3nc2O)C(=O)c2cccnc2)cc1 ... 85.5
O=C(Nc1cccc(-c2nc3ccccc3s2)c1)c1ccc(Cn2cnnn2)cc1 ... 85.2
COc1ccccc1N1CCN(C(=O)c2ccccc2C(=O)c2ccccc2)CC1 ... 92.9
Cc1ccc(C(=O)N2CCC(Cc3ccccc3)CC2)cn1 ... 94.7
COc1ccc2c(c1)C1(CC(=O)N(Cc3ccccc3)C1=O)C(=O)N2Cc1ccccc1 (centres unmarked) ... 106
O=C(Cc1ccccc1)N1CCC(CC(=O)N2CCC3(CCCCC3)C2)CC1 ... 93.8
CCNCCOc1c(C)cc(C)cc1C [CBK270137C] ... 108
Cc1ccc(C(=O)O)cc1NC(=O)C(C)Oc1cccc(Cl)c1 (centres unmarked) ... 95.7

Input: Assign viability at 28.5 h, 10 µM to the following record: O=C(O)c1cccc2c1Sc1ccccc1O2
Output: 90.8

Input: Assign viability at 28.5 h, 10 µM to the following record: Cc1ccnn1CCNC(=O)C(C)Cc1cccs1 (centres unmarked)
Output: 109

Input: Assign viability at 28.5 h, 10 µM to the following record: COc1ccc(C2=NN(c3ccc([N+](=O)[O-])cc3)C(=O)/C2=C\c2cccc(OC)c2OC)cc1
Output: 96

Input: Assign viability at 28.5 h, 10 µM to the following record: O=C(O)C1(NS(=O)(=O)c2ccc(F)c(Cl)c2)CCCCC1
Output: 98.2

Input: Assign viability at 28.5 h, 10 µM to the following record: O=C(O)c1cc(S(=O)(=O)Nc2cccc(-c3cnco3)c2)c(F)cc1Cl
Output: 90.5

###

assay_info: in vitro
reported_conditions: human, hela cells, % viability
experimental_endpoint: viability at 28.5 h, 10 µM (%)
Expressed in %, but write only the number.

A selection of reference data follows.
COc1cccc(CN2CCCC(NC(=O)c3csc(C(C)=O)c3)C2)c1 (stereo not shown) ... 87.6
CC1Cc2cc(C(O)CN3CCC(O)(c4ccccc4F)CC3)ccc2N1S(C)(=O)=O (stereo not shown) ... 87.5
CCn1cncc1CN1CCC(O)(c2ccccc2F)CC1 ... 112
CC(=O)Cc1ccccc1OCC(=O)O ... 90.9
CC(C)n1cnnc1CN1CCN(c2ccc(C#N)cc2)CC1 ... 106
COc1ccc(-c2cc(C(=O)NCc3cc(Cl)cc(Cl)c3)cnc2-c2ccc(Cl)cc2)cn1 ... 88.8
Cc1[nH]c2cccc(C(=O)N3CCOC(C)(C(=O)NC4CCCC4)C3)c2c1C (stereo not shown) ... 87.3
COc1cccc(CNc2nccnc2-c2ccccc2F)c1OC ... 98.1
CC(=O)Nc1ccc(S(=O)(=O)N2CCN(S(=O)(=O)N(C)C)CC2)cc1 ... 95.9
COC(=O)c1scc(NS(=O)(=O)c2ccc(Cl)cc2Cl)c1C(=O)OC ... 89.4

Input: Assign viability at 28.5 h, 10 µM to the following record: O=C(c1cscn1)N1CCCC(n2cnc3cc(F)ccc32)C1 (stereo not shown)
Output: 90.8

Input: Assign viability at 28.5 h, 10 µM to the following record: CC1(C)[C@H]2CC[C@]1(C)[C@@H](OCCNc1ccccc1)C2
Output: 87.8

Input: Assign viability at 28.5 h, 10 µM to the following record: Cc1nc2c(c(N3CCN(c4ccc(O)cc4)CC3)n1)CN(Cc1ccccc1)CC2
Output: 90.2

Input: Assign viability at 28.5 h, 10 µM to the following record: O=C(c1cc2ncc(Br)cn2n1)N1CCOCC1
Output: 97.9

Input: Assign viability at 28.5 h, 10 µM to the following record: O=C(c1cccc2[nH]ccc12)N1CCCC2(CCN(Cc3ccccc3)C2)C1 (stereo not shown)
Output: 93.5

Input: Assign viability at 28.5 h, 10 µM to the following record: O=C(OCC#CCSc1nnc(-c2ccncc2)o1)c1sc2ccccc2c1Cl
Output: 94.6

Input: Assign viability at 28.5 h, 10 µM to the following record: CC(C)(C)OC(=O)N1CCC(C2OCc3cc(-c4ccc(C(=O)N5CCOCC5)o4)ccc3O2)CC1 (stereo not shown)
Output: 85.6

Input: Assign viability at 28.5 h, 10 µM to the following record: CC(C)c1ccc(NC(=O)NC(=O)C2CCN(CCOc3ccc4ccccc4c3)CC2)c(C(C)C)c1
Output: 96

Input: Assign viability at 28.5 h, 10 µM to the following record: O=C(Cn1c(=O)n(Cc2cccs2)c2ncccc21)N1CCCC1
Output: 83.6

###

assay_info: in vitro
reported_conditions: human, hela cells, % viability
experimental_endpoint: viability at 28.5 h, 10 µM (%)
Expressed in %, but write only the number.

A selection of reference data follows.
CCc1ccc(OC(C)c2nnc(SCC(=O)N3c4ccccc4Sc4ccccc43)n2C)cc1 (stereo not drawn) ... 92.3
COc1cc(CNCc2cccs2)cc(Cl)c1OCC(N)=O [CBK270237C] ... 87.6
CS(=O)(=O)c1ccc(Cn2c(=O)[nH]c3ncc(-c4cccc(/C=C/C(=O)O)c4)nc32)cc1 ... 97.7
COc1ccc(C)cc1C1(CNC(=O)C2CC2C(=O)O)CCOCC1 (stereo not drawn) ... 82
C[C@@H](Cn1nnc2ccccc21)NC(=O)C1CC1 ... 88.5
CC(C)OC(=O)CCNC(=O)c1cccc(S(=O)(=O)N2CCCC2)c1 ... 91.1
CCNC(=O)c1c(O)nc2ccccc2c1O ... 103
O=S(=O)(Nc1ccc(C(O)(C(F)(F)F)C(F)(F)F)cc1)c1cccc2nsnc12 ... 108

Input: Assign viability at 28.5 h, 10 µM to the following record: O=c1nc(CNc2ccc(Br)cc2)[nH][nH]1
Output: 86.2

Input: Assign viability at 28.5 h, 10 µM to the following record: CCC(CO)Nc1cncc(-c2cccc(O)c2)n1 (stereo not drawn)
Output: 96

Input: Assign viability at 28.5 h, 10 µM to the following record: O=S(=O)(Cc1ccccc1Cl)NCCN1CCOCC1
Output: 102

Input: Assign viability at 28.5 h, 10 µM to the following record: Cc1ccccc1OCC(O)Cn1c(=N)n(CCN2CCCCC2)c2ccccc21 (stereo not drawn) [CBK266698C]
Output: 98.1

Input: Assign viability at 28.5 h, 10 µM to the following record: COc1ccc(C)cc1Nc1nc(N)nc(-c2oc3ccccc3c2C)n1
Output: 107

Input: Assign viability at 28.5 h, 10 µM to the following record: CC(CNC(=O)c1cncc(Br)c1)NC(=O)c1cncc(Br)c1 (stereo not drawn)
Output: 91.6

###

assay_info: in vitro
reported_conditions: human, hela cells, % viability
Entries and their measured viability at 28.5 h, 10 µM follow.
Expressed in %, but write only the number.

A selection of reference data follows.
CC(C)[C@H](CO)n1c(=O)[nH]c2ncc(-c3cccc4ncccc34)nc21 ... 99.5
O=C(Cc1cccs1)N1CCC(c2nnc(-c3ccccc3)c(-c3ccccc3)n2)CC1 ... 98.8
O=C(c1cc(S(=O)(=O)N2CCOCC2)ccc1Cl)N1CCCCC1 ... 94.1

Input: Assign viability at 28.5 h, 10 µM to the following record: O=C(Nc1cccc(Cl)c1)C1CCC(C(=O)Nc2cccc(Cl)c2)CC1 (stereo not drawn)
Output: 85.8

Input: Assign viability at 28.5 h, 10 µM to the following record: CC(=O)Nc1cccc(-c2cnc(N)c(NC3CCOCC3)n2)c1
Output: 107

Input: Assign viability at 28.5 h, 10 µM to the following record: O=C(c1ccccc1-c1ccccc1)N1CCn2cnnc2C1
Output: 85.2

Input: Assign viability at 28.5 h, 10 µM to the following record: Cc1ccc(N(CC(=O)N/N=C/c2ccccc2)S(=O)(=O)c2ccccc2)cc1
Output: 88.3

Input: Assign viability at 28.5 h, 10 µM to the following record: O=C(CCN1C(=O)/C(=C\C=C\c2ccccc2)SC1=S)Nc1cc(Cl)ccc1O
Output: 96.2

Input: Assign viability at 28.5 h, 10 µM to the following record: O=C(CN1CCCCCC1)Nc1sc2c(c1C(=O)Nc1ccc(Br)cc1)CCC2
Output: 109
